measured-target: Recombinant human JAK2 (catalytic domain, amino acids 808-1132) (Homo sapiens, UniProt O60674)
Construct: catalytic domain, amino acids 808-1132
Sequence (O60674 808-1132): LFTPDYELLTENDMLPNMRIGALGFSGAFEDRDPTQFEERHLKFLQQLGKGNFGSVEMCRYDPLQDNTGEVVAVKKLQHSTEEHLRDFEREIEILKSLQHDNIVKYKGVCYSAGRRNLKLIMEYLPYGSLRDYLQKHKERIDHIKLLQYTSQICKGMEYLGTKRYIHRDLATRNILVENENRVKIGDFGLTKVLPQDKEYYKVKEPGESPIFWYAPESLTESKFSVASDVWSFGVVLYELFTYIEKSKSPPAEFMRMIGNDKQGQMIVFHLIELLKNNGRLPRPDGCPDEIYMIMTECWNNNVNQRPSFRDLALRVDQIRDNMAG
procedure-summary: JAK2 inhibition assay; note: 0.7 µM ATP
test-context: read-out: JAK2 potency IC50
property-label: IC50 (nM)

compound: Cc1cc(C#N)ncc1Oc1cc(Nc2ccc(C(=O)NC3CCC(O)C3)cn2)c2ncn(C)c2n1 (racemic) [Compound 139]
recorded-value: 23.7

compound: CCNC(c1ccc(Nc2cc(Oc3cnc(C#N)cc3C)nc3c2ncn3C)nc1)C(F)(F)F (stereo not shown) [Compound 80]
recorded-value: 5.2

compound: COCC1CN(C(=O)c2ccc(Nc3cc(Oc4cnc(C#N)cc4C)nc4c3ncn4C)nn2)C1 [Compound 117]
recorded-value: 32.3

compound: Cn1cnc2c(Nc3cc(N)ncn3)cc(NC(C3CC3)C3CC3)nc21 [Compound 95]
recorded-value: 38
